- measurement.target: T1, human Granzyme B (human, UniProt P10144 21-247)
- T1 construct: Captured on a Series S Streptavidin chip for SPR; also called hGranzyme B; GzmB
- T1 sequence (P10144 21-247 limits assumed): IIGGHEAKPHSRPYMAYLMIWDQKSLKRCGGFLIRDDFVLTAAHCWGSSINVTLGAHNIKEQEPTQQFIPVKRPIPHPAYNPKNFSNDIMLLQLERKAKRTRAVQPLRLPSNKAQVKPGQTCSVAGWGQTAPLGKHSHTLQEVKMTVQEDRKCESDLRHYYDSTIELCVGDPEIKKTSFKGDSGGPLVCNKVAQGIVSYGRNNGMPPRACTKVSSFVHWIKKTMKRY
- experiment.notes: SPR, Biacore 8k+, hGranzyme B captured on SA chip, single cycle kinetics, 1:1 model; Compound 66a, observed m/z 912.5
Bridge positions count the residues as written; N and C are the ends. Square brackets hold non-standard residues; d marks the D form. Trp(7-Me) = Cc1cccc2c(C[C@H](N)C(=O)O)c[nH]c12
measurement.type: pKd
Field pKd (float): negative decimal logarithm of the concentration in molar.

Request: State the recorded pKd for this entry: {CH2CO}-FNFEDQSPDT[Trp(7-Me)]QPCG-NH2 (thioether N-14) [Compound 66a]
Result: 7.95
